# experimental_target: T1, Pin3, Q06449
# T1 sequence (Q06449 53-122, looked up): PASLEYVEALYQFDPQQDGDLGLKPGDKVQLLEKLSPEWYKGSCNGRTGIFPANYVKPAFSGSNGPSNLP
# method_description: SPOT array
# assay_conditions: median of control spots 2171
attribute_measured: SPOT intensity

binder=ERPKRRAPPPVPKKP attribute_measured="SPOT intensity" measured_value=11
binder=RRLRDKYKLPIVDAD attribute_measured="SPOT intensity" measured_value=0
binder=KLSRGRYGLPLSSRP attribute_measured="SPOT intensity" measured_value=7
binder=SHRLWLYAAPKRPKT attribute_measured="SPOT intensity" measured_value=13

a = SSSSTPPTLPPRRIE
b = HPRFVSPRIPSRIVK
Compare a and b and name the one whose reported SPOT intensity is smaller. Please reply using the label of the selected record. a
(a: 58, b: 86)
